Catalogue of compounds with associated pIC50
# Experimental target: IKKε (Homo sapiens, UniProt Q14164)
# Construct: TBK1 and IKKε were expressed and purified as full length recombinant proteins
# Sequence (Q14164 1-716): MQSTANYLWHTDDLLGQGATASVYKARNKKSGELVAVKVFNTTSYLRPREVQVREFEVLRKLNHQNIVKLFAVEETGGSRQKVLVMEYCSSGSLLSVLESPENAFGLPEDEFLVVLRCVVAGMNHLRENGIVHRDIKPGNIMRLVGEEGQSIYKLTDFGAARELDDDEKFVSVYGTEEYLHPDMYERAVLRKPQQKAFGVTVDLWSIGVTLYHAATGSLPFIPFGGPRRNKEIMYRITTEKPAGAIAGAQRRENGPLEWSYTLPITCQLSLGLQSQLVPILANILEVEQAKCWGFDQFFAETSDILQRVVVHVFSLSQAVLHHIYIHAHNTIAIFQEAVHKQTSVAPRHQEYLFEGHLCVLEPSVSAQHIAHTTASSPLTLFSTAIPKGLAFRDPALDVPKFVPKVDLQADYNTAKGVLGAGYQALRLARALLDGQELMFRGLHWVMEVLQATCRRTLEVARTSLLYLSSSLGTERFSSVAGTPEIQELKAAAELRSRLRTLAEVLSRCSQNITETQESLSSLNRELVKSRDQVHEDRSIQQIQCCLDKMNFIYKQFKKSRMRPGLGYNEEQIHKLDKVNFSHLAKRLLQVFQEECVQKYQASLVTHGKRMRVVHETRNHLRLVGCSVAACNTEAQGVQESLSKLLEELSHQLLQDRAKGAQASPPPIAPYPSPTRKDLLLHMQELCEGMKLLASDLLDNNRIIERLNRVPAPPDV
# Procedure text: TR-FRET enzymatic activity assay, IKKε; note: full length recombinant IKKε at 0.3 nM
# Conditions: read-out: IKKϵ IC50
# Experimental: Biological Assay for TBK1 and IKKε: Enzymatic activity of IKKε and TBK1 was measured using a homogeneous time resolved fluorescence resonance energy transfer (TR-FRET) assay that monitors enzyme dependent phosphorylation of a biotinylated serine/threonine peptide substrate. […] TBK1 and IKKε were expressed and purified as full length recombinant proteins. Detection reagents for the assay were purchased from Cisbio. […]
pIC50: −log10 of the molar value.
Measured parameter: pIC50

>>> print(df.to_string())
                                   compound  recorded_value
0      N#Cc1cc(-c2cc(NC(=O)C3CC3)ncn2)ccc1F          < 6.00
1  N#Cc1cc(-c2cc(NC(=O)C3CC3)ncn2)ccc1C(=O)NCC(F)F          < 6.00
2  N#Cc1cc(-c2ccnc(NC(=O)[C@H]3C[C@@H]3c3ccc(OC(F)(F)F)cc3)c2)ccc1OC1CCOCC1 (relative stereo)          < 6.00

====

# Experimental target: IKKε (Homo sapiens, UniProt Q14164)
# Construct: TBK1 and IKKε were expressed and purified as full length recombinant proteins
# Procedure text: TR-FRET enzymatic activity assay, IKKε; note: full length recombinant IKKε at 0.3 nM
# Conditions: read-out: IKKϵ IC50
Classify: satisfied when IC50 is strictly less than 90 nM; not satisfied when IC50 is not.

>>> df
                                   compound    class_label
0  Cc1n[nH]c(C(=O)N2CC[C@H](Oc3ccc(-c4cc(NC(=O)C5CC5)ncn4)cc3C#N)C(F)(F)C2)n1      satisfied
1  CCOC(=O)[C@@H]1C[C@H]1C(=O)Nc1cc(-c2ccc(OC3CCOCC3)c(C#N)c2)ccn1 (relative stereo)  not satisfied
2  N#Cc1cc(-c2ccnc(NC(=O)C3C4CC3C4C(N)=O)c2)ccc1OC1CCOCC1 (centres unmarked)  not satisfied
3  N#Cc1cc(-c2ccnc(NC(=O)[C@H]3C[C@@H]3c3cccnc3)c2)ccc1O[C@H]1CCN(C(=O)CO)CC1(F)F      satisfied
4  N#CCC(=O)N1CC[C@H](Oc2ccc(-c3cc(NC(=O)C4CC4)ncn3)cc2C#N)C(F)(F)C1  not satisfied
5  CON(C)C(=O)[C@@H]1C[C@H]1C(=O)Nc1cc(-c2ccc(OC3CCOCC3)c(C#N)c2)ccn1 (relative stereo)  not satisfied
6  N#Cc1cc(-c2ccnc(NC(=O)C3CC3)c2)ccc1O[C@H]1CCN(C(=O)[C@@H](O)CO)CC1(F)F      satisfied

====

# Experimental target: IKKε (Homo sapiens)
# Construct: TBK1 and IKKε were expressed and purified as full length recombinant proteins
# Procedure text: TR-FRET enzymatic activity assay, IKKε; note: full length recombinant IKKε at 0.3 nM
# Conditions: read-out: IKKϵ IC50
# key: entry, value: IC50
Measured parameter: IC50

In [3]: df
Out[3]:
                                   compound  recorded_value
0  N#Cc1cc(-c2cc(NC(=O)C3CC3)ncn2)ccc1C(=O)NCC(F)(F)F [Example 54]       > 1000 nM
1  N#Cc1cc(-c2ccnc(NC(=O)[C@@H]3C[C@H]3C3OCCO3)c2)ccc1OC1CCOCC1 (relative stereo) [Example 44]          192 nM
2  N#Cc1cc(-c2ccnc(NC(=O)C3CC3)c2)ccc1N1CCC[C@@H]1C(N)=O [Example 95]       > 1000 nM

====

IC50 overview
# Experimental target: TBK1 (Homo sapiens)
# Construct: TBK1 and IKKε were expressed and purified as full length recombinant proteins
# Sequence (Q9UHD2 whole entry): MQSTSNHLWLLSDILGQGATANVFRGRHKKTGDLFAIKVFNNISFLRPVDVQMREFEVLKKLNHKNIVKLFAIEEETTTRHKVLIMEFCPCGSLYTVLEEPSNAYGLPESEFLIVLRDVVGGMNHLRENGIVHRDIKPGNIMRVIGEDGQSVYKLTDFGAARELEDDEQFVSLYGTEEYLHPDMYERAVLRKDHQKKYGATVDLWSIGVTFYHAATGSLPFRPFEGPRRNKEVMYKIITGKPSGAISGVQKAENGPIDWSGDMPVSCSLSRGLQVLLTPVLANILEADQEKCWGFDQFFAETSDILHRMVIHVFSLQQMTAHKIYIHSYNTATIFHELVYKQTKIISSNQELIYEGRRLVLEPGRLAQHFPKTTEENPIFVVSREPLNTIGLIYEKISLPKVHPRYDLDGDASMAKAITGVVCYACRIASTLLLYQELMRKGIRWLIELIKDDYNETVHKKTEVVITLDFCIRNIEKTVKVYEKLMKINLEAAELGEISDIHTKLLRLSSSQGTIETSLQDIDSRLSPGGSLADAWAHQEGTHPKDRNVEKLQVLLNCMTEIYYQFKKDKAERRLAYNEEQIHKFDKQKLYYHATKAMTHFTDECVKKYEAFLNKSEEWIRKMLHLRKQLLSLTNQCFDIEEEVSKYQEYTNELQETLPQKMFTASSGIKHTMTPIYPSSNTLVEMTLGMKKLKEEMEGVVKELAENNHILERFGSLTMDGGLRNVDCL
# Procedure text: TR-FRET enzymatic activity assay, TBK1; note: full length recombinant TBK1 at 2.5 nM
Measured parameter: IC50 (nM)

>>> df
                                   compound  recorded_value
0  N#Cc1cc(-c2cc(NC(=O)C3CC3)ncn2)ccc1OC1CCN(C(=O)CO)CC1            66.1
1  N#Cc1cc(-c2cc(NC(=O)C3CC3)ncn2)ccc1O[C@H]1CCN(C(=O)[C@@H](O)CO)CC1(F)F             2.8
2  N#Cc1cc(-c2ccnc(NC(=O)C3CC3(F)F)c2)ccc1O[C@H]1CCN(C(=O)CO)C[C@H]1F (stereo partly shown)            48.6
3  Cn1cc([C@@H]2C[C@H]2C(=O)Nc2cc(-c3ccc(O[C@H]4CCN(C(=O)CO)CC4(F)F)c(C#N)c3)ncn2)cn1 [Example 137]            21.4

====

# Experimental target: IKKε (Homo sapiens)
# Construct: TBK1 and IKKε were expressed and purified as full length recombinant proteins
# Sequence (Q14164 1-716): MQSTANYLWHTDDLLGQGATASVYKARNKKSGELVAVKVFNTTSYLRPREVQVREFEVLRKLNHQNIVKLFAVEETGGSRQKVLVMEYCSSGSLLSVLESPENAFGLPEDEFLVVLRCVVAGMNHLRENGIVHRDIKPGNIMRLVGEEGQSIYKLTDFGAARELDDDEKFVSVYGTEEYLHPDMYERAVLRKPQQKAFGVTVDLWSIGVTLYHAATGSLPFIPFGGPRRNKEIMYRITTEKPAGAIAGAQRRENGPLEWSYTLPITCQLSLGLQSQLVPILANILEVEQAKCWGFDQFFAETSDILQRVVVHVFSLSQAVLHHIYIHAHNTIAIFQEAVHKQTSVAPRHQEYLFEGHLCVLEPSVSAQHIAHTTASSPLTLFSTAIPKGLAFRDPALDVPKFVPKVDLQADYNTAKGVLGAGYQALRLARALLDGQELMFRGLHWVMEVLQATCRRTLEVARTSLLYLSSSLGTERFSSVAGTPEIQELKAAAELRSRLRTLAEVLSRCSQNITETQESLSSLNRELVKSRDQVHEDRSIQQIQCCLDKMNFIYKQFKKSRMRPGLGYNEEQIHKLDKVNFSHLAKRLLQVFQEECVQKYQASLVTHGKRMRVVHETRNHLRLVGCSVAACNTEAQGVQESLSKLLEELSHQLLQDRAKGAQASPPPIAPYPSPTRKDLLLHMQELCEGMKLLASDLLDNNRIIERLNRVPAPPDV
# Procedure text: TR-FRET enzymatic activity assay, IKKε; note: full length recombinant IKKε at 0.3 nM
# Conditions: read-out: IKKϵ IC50
// thresholds for IC50 classes: low end = under 50 nM, middle = from 50 nM up to 200 nM, high end = 200 nM and over

Molecule	Class label
CC(=O)OC1(C(=O)Nc2cc(-c3ccc(OC4CCOCC4)c(C#N)c3)ccn2)CC1	high end
N#Cc1cc(-c2ccnc(NC(=O)[C@H]3[C@@H]4COC[C@@H]43)c2)ccc1OC1CCOCC1	high end
N#Cc1cc(-c2ccnc(NC(=O)C3CC3C#N)c2)ccc1O[C@H]1CCN(C(=O)CO)C[C@H]1F (stereo partly drawn)	middle
N#Cc1cc(-c2cc(NC(=O)C3CC3)ncn2)ccc1O[C@H]1CCN(C=O)C[C@H]1F	middle
Cn1cc([C@@H]2C[C@H]2C(=O)Nc2cc(-c3ccc(O[C@H]4CCN(C(=O)CO)C[C@H]4F)c(C#N)c3)ccn2)cn1 (single isomer, unassigned) [Example 125]	low end
N#Cc1cc(-c2ccnc(NC(=O)[C@H]3C[C@@H]3C(F)F)c2)ccc1OC1CCOCC1 (relative stereo)	high end
N#Cc1cc(-c2ccnc(NC(=O)[C@@H]3C[C@H]3c3ccco3)c2)ccc1OC1CCOCC1 (relative stereo)	high end
N#Cc1cc(-c2ccnc(NC(=O)[C@@H]3C[C@H]3c3cccnc3)c2)ccc1O[C@H]1CCN(C(=O)CO)CC1(F)F [Example 141]	low end
CC(C)(C)OC(=O)N1CC[C@H](Oc2ccc(-c3cc(NC(=O)C4CC4)ncn3)cc2C#N)C(F)(F)C1	high end
N#Cc1cc(-c2cc(NC(=O)C3CC3)ncn2)ccc1OC1CCOCC1	high end
CN(C)C(=O)[C@@H]1C[C@@H]1C(=O)Nc1cc(-c2ccc(O[C@H]3CCN(C(=O)CO)C[C@H]3F)c(C#N)c2)ccn1	high end
Cc1n[nH]c(C(=O)N2CC[C@H](Oc3ccc(-c4ccnc(NC(=O)C5CC5C)c4)cc3C#N)[C@H](F)C2)n1 (stereo partly drawn)	low end
N#Cc1cc(-c2ccnc(NC(=O)C3CC3)c2)ccc1N1CC[C@H](O)C1	high end
Cn1cc([C@@H]2C[C@H]2C(=O)Nc2cc(-c3ccc(O[C@H]4CCN(C(=O)[C@@H](O)CO)CC4(F)F)c(C#N)c3)ccn2)cn1	low end
CCOC(=O)[C@@H]1C[C@H]1C(=O)Nc1cc(-c2ccc(OC3CCOCC3)c(C#N)c2)ncn1 (relative stereo)	high end
N#Cc1cc(-c2ccnc(NC(=O)[C@@H]3C[C@@H]3CO)c2)ccc1O[C@H]1CCN(C(=O)CO)C[C@H]1F	middle
N#Cc1cc(-c2ccnc(NC(=O)[C@H]3C[C@@H]3F)c2)ccc1O[C@H]1CCN(C(=O)CO)C[C@H]1F	low end
